Recorded values, source patent US20110118447A1.

Hi there, I'd appreciate the recorded fold affinity vs original for every entry that follows.
Biological target: binding partner of C5A (XPA23)
Assay: Biacore
Output spec: scalar in fold, unitless text.

Lab note: measured fold affinity vs original of C5A (XPA23) VH V99F (antibody, V domains shown) VH: EVQLLESGGGLVQPGGSLRLSCAASGFTFSKYFMFWVRQAPGKGLEWVSVISPSGGMTRYADSVKGRFTISRDNSKNTLYLQMNSLRAEDTAVYYCARFGYGGNSDYWGQGTLVTVSS VL: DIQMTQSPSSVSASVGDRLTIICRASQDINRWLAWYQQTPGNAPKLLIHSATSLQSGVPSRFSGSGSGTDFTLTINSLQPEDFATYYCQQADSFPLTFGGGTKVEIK was 0.03

Lab note: measured fold affinity vs original of C5A (XPA23) VH S105E (antibody, V domains shown) VH: EVQLLESGGGLVQPGGSLRLSCAASGFTFSKYFMFWVRQAPGKGLEWVSVISPSGGMTRYADSVKGRFTISRDNSKNTLYLQMNSLRAEDTAVYYCARVGYGGNEDYWGQGTLVTVSS VL: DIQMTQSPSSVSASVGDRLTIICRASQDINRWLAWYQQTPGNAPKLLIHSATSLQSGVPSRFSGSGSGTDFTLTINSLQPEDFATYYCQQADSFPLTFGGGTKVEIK was 1.17

Lab note: measured fold affinity vs original of C5A (XPA23) VH P53Q (antibody, V domains shown) VH: EVQLLESGGGLVQPGGSLRLSCAASGFTFSKYFMFWVRQAPGKGLEWVSVISQSGGMTRYADSVKGRFTISRDNSKNTLYLQMNSLRAEDTAVYYCARVGYGGNSDYWGQGTLVTVSS VL: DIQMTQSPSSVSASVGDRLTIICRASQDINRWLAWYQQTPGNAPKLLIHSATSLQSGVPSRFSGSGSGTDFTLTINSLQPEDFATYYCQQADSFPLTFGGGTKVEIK was 0.03

Lab note: measured fold affinity vs original of C5A (XPA23) VH D106E (antibody, V domains shown) VH: EVQLLESGGGLVQPGGSLRLSCAASGFTFSKYFMFWVRQAPGKGLEWVSVISPSGGMTRYADSVKGRFTISRDNSKNTLYLQMNSLRAEDTAVYYCARVGYGGNSEYWGQGTLVTVSS VL: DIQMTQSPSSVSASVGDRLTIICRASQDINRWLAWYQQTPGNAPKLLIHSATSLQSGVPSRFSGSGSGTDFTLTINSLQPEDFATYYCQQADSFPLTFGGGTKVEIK was 0.04

Lab note: measured fold affinity vs original of C5A (XPA23) VH S30W (antibody, V domains shown) VH: EVQLLESGGGLVQPGGSLRLSCAASGFTFWKYFMFWVRQAPGKGLEWVSVISPSGGMTRYADSVKGRFTISRDNSKNTLYLQMNSLRAEDTAVYYCARVGYGGNSDYWGQGTLVTVSS VL: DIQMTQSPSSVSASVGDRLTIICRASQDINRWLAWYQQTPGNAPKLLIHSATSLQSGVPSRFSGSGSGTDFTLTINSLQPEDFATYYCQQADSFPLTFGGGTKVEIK was 0.77
